These compounds were tested on porcine pancreatic phospholipase A2 (PLA2) (Sus scrofa); IC50 is the recorded read-out.
Sequence (P00592 23-146): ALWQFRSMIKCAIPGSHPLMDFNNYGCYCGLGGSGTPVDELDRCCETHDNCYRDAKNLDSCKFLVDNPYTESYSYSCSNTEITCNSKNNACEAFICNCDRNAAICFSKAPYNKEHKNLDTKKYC
Quantity measured: IC50 (µM)

These solved cases illustrate the format of a correct answer.
CC(/C=C/C=C(\C)C1=Cc2cc(C(C)(C)C)ccc2OC1)=C\C(=O)O = 4
CCOC(=O)/C=C(C)/C=C/C=C(\C)C1=Cc2cc(-c3ccccc3)ccc2OC1 = 5
CCOC(=O)\C=C(C)/C=C/C=C(\C)C1=Cc2cc(-c3ccccc3)ccc2OC1 = 7.5

1: Cc1cc(Cl)cc2c1OC(C)(C)C(/C=C/C=C/C=C/C(=O)O)=C2
2: Cc1cc(Cl)c2c(c1)C=C(/C=C/C=C/C=C/C(=O)O)CO2
3: CCOC(=O)/C=C(C)/C=C/C=C(\C)C1=Cc2cc(C)cc(C)c2OC1
4: O=C(O)/C=C/C=C/C=C/C1=Cc2cc(Cl)cc(Cl)c2OC1
Number of compounds to sort: 4. Sort criterion: IC50, ascending. Please respond with the labels ordered as the question requires.
3, 4, 2, 1

Data provenance: patent US5391569A
